experiment: primary screen for suppressors of beta-catenin knockout HCT116 cell growth, colon tumor, human (AID 818); conditions: CellTiter-Glo, 60 h, at 10 µM
The whole screen tested about 140,000 compounds, of which about 2,100 (1.5%) were called active.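 Rule for the calls: active = viability at or under a set limit, the compound median less 4 SD (cut at about 6% in these data); inactive = the rest.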 For the sample, actives were picked, then their nearest neighbours and some compounds at random.
Answer with one of the outcomes active, inactive

# example entries with known answers
CC(=O)Nc1ccc(S(=O)(=O)NCC(=O)OCc2cc(=O)oc3ccc4ccccc4c23)cc1 : inactive
CCc1nccn1S(=O)(=O)c1cccc([N+](=O)[O-])c1 : inactive
Cc1ccc(C)c(NC(CC(=O)c2ccccc2)C(=O)OCC(=O)c2cccs2)c1 (stereo not drawn) : inactive
CCc1ccc2c(c1)C1(NN=C(c3ccccc3)S1)C(=O)N2 (stereo not drawn) : active
CN(C)c1ccc(/C=N/NC(=O)c2ccc(Cn3cc(Br)cn3)o2)cc1 : inactive

Tell me the assay call for CCCNC(=O)OC[C@H]1O[C@H](CCO/N=C/[C@@H](NS(=O)(=O)c2ccc(C)cc2)[C@H](C)/C=C/CC(=O)OC)C=C[C@@H]1Oc1ccc(OC)cc1 please.
active

Tell me the assay call for O=C(Nc1ccc2c(c1)OCCO2)c1ccncc1 please.
inactive

Tell me the assay call for O=C1c2ccccc2NC(c2ccc(-c3cccc(Cl)c3)o2)N1O (stereo not drawn) please.
active
